Test system: SW-620 colon
Assay: NCI-60 one-dose screen, 48 h (100 = growth as untreated, 0 = no growth, -100 = all killed)
Settings: 10 µM
This is part of a sample that, as a whole, favours compounds with a hit. Of some 83,000 tested, about 20% had one in any assay.
reported_metric: growth (%)

1) N#Cc1c(NC(=O)c2ccc(C(F)(F)F)cc2C(F)(F)F)sc2c1CCC(=O)C2 | -43.7
2) C=C[C@H]1[C@H](O[C@@H]2OC(CO)[C@@H](O)[C@H](O)C2OC(=O)c2c(O)cc(O)cc2-c2cccc(O)c2)OC=C2C(=O)OCC[C@H]21 (some centres undefined) | 105
3) O=c1oc2ccc(-c3ccc(F)cc3F)cc2c(=O)n1-c1ccc(F)cc1 | 10.2
4) COc1cccc(-c2nn(-c3ccccc3)cc2-c2ccnc(NCCCNC(=O)Nc3ccc(F)cc3)c2)c1 | 14.5
5) Clc1cccc(N/N=C/c2c[nH]c3ccccc23)n1 | 52.1
6) COc1ccc([C@H]2C(C(=O)c3ccc(Cl)cc3)C3(N[C@@H]2c2ccccc2)C(=O)Nc2ccc(Br)cc23)cc1 (some centres undefined) | 7.87
7) Cc1ccc([N+](=O)[O-])c(C(=O)Nc2ccc(-c3ccc4c(c3)NC(=O)/C4=C\c3ccc[nH]3)cc2)c1 | -51.2
8) COc1ccc(CCN2C(=O)/C(=C/c3csc(C#N)n3)SC2=S)cc1 | -14.6
9) O=C(CN1CCN(c2ncnc3c2cnn3-c2ccccc2)CC1)Nc1nncs1 | -23.9
